The reported numbers originate from patent US20220249679A1.

Documented hCD138 ka across a set of molecules
Target: T1, Human CD138 His (Homo sapiens, UniProt P18827)
T1 construct: His
T1 sequence (P18827 23-310): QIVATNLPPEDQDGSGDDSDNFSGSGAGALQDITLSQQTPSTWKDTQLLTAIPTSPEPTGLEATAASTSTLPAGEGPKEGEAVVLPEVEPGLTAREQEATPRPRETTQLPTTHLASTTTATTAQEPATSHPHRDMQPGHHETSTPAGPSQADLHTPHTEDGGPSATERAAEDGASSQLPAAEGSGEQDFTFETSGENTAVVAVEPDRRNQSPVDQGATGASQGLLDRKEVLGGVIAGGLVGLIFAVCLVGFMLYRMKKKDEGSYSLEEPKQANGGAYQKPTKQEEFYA
Assay: SPR kinetic binding, human CD138
Conditions: bivalent analyte fit

Known hCD138 ka results, listed for orientation:
| molecule | observation-type | experimental-value |
| --- | --- | --- |
| F11AP11E5: murine anti-CD138 hybridoma antibody; VH SEQ ID NO:87, VL SEQ ID NO:39 (antibody, listed as Mus musculus, V domains shown) VH: QVQLQQSGAELVKPGASVKLSCKASGYTFTNYYMYWVKQRPGQGLEWIGEINPGNGGTNFNEKFKNKATLTVDKSSSTAYMQLSSLTSEDSAVYYCTTRFAYWGQGTLVIVSA VL: DVVMTQTPLSLSVTIGQPASISCKSGQSLLYSNGKTYLTWLQQRPGQAPKLLMYQVSKLDPGIPDRFSGSGSETDFTLKISRVEAEDLGVYYCLQNTYYPHTFGAGTKLELKR | hCD138 ka | 128000 M⁻¹ s⁻¹ |
| F13P30A7: murine anti-CD138 hybridoma antibody; VH SEQ ID NO:83, VL SEQ ID NO:35 (antibody, listed as Mus musculus, V domains shown) VH: EVQLVESGGGLVQPKGSLKLSCAASGFTFNTYAMNWVRQAPGKGLEWIARIRSKSNNYATYYADSVKDRFTISRDDSQSLLYLQMNNLKTEDTAIFYCVTDYGYVYFDAWGAGTTVTVSS VL: NIIMTQSPKSMAMSVGERVTLSCKASENVGNYVSWYQQKPEQSPKLLIYGASYRYTGVPDRFTGSGSGTDFTLTISSVQAEDLADYHCGQSSRYPLTFGAGTKLELKR | hCD138 ka | 238000 M⁻¹ s⁻¹ |

Report hCD138 ka for F13P18D8: murine anti-CD138 hybridoma antibody; VH SEQ ID NO:84, VL SEQ ID NO:36 (antibody, listed as Mus musculus, V domains shown) VH: EVQLLESGGGLVQPEGSLKLSCAASGFAFNTYAMNWVRQAPGKGLEWLARIRSKSNNYATYYADSVKDRFTISRDDSQGMLYLQMNNLKTEDTAMYYCVTDYYYVYFDVWGAGTTVTVSS VL: NIVMTQSPKSMSMSVGERVTLSCKASENVGTYVSWYQQKSDQSPKLLIYGASNRYTGVPDRFTGSGSATDFTLTITSVQSEDLADYHCGQSSRYPLTFGAGTKLELKR
278000 M⁻¹ s⁻¹

Report hCD138 ka for F12P7G11: murine anti-CD138 hybridoma antibody; VH SEQ ID NO:85, VL SEQ ID NO:37 (antibody, listed as Mus musculus, V domains shown) VH: QVQLQQSGAELARPGASVKLSCKASGYTFSSHWMQWVKQRPGQGLEWIGAIYPGDGDTRFTQKFKGKATLTADKSSNTAYMQLSSLASEDSAVYYCARGIYYDRSRAMDYWGQGTSVTVSS VL: QIVLSQSPAILSASPGEKVTMTCRASSSVNYMHWYQQKPGSSPKHWIYATSYLASGVPARFSGSGSGTSYSLTISRVEAEDAATYYCQQWSSDPLTFGAGTKLELKR
3.81e+06 M⁻¹ s⁻¹

Report hCD138 ka for F13P14D3: murine anti-CD138 hybridoma antibody; VH SEQ ID NO:86, VL SEQ ID NO:38 (antibody, listed as Mus musculus, V domains shown) VH: EVQLVESGGGLVQPKGSLKLSCATSGFTFNTYAMNWVRQAPGKGLEWVARIRSKSNNYATYYVDSVKDRFTISRDDSQSTVHLQMNNLKTEDTAIYYCVTDYGHVYFDVWGAGTTVTVSS VL: NIVMTQSPKSMSMSVGQRVTLSCKASENVGSYVSWYQQKPEQSPKLLIYGASNRNTGVPDRFTGSGSATDFTLTISSVQAEDLADYHCGQSSRYPLTFGGGTKLELKR
107000 M⁻¹ s⁻¹
